Provide the recorded pKi for the entries that follow.
# SYSTEM: Receptor-interacting serine/threonine-protein kinase 1 (Homo sapiens, UniProt Q13546)
# Sequence (Q13546 whole entry): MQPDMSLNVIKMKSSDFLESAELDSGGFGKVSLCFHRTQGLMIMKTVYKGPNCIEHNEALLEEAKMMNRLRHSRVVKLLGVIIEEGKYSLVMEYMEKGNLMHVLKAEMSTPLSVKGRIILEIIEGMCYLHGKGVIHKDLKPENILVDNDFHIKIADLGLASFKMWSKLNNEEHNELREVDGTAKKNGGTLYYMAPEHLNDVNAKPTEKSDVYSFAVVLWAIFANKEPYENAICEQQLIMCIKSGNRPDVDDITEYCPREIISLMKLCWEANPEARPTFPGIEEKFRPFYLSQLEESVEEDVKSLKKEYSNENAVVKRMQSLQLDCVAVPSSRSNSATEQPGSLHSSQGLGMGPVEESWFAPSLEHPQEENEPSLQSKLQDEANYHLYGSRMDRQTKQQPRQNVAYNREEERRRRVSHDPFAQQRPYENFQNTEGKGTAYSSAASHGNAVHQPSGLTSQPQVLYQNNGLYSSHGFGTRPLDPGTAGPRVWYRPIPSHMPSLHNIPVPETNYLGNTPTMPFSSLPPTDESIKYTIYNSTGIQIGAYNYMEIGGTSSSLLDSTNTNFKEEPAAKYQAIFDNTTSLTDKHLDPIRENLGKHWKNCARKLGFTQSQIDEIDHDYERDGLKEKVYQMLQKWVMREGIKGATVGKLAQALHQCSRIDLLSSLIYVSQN
Answers are plain numbers, as −log10 of the molar value.

Sample records with pKi:
| COMPOUND | MEAS_VALUE |
| --- | --- |
| CN1C(=O)C(C(=O)Nc2cn(Cc3ccccc3)cn2)CCc2cccnc21 (stereo not given) | 6.67 |
| CN1C(=O)C(C(=O)Nc2cn(Cc3ccccc3)cn2)CCc2ccncc21 (stereo not given) | 6.10 |
| CN1C(=O)C(C(=O)Nc2ncc(Cc3ccccc3)s2)CCc2ccccc21 (stereo not given) | 8.72 |
| COc1cc2c(cn1)N(C)C(=O)C(C(=O)Nc1cn(Cc3ccccc3)cn1)CC2 (stereo not given) | 6.24 |

Here's the next entry for you.
Data request: // output pKi; input COc1cc2c(cn1)N(C)C(=O)[C@@H](C(=O)Nc1ncc(Cc3ccccc3)s1)CC2 ; system Receptor-interacting serine/threonine-protein kinase 1 (Homo sapiens, UniProt Q13546)
Data returned: 7.66

---

# SYSTEM: Receptor-interacting serine/threonine-protein kinase 1 (Homo sapiens, UniProt Q13546)
pKi: −log10 of the molar value.
Output yes for pKi not less than 7; output no otherwise.

| COMPOUND | GROUP |
| --- | --- |
| CN1C(=O)C(C(=O)Nc2cn(Cc3c(F)cccc3F)cn2)CCc2ccccc21 (stereo unspecified) | yes |
| CN1C(=O)C(C(=O)Nc2ncn(Cc3ccccc3)n2)CCc2ccccc21 (stereo unspecified) | yes |
| CN1C(=O)C(C(=O)Nc2ncc(Cc3ccccc3)o2)CCc2ccccc21 (stereo unspecified) | no |

Data request: Is reported pKi greater than or equal to 7 here: COc1cc2c(cn1)N(C)C(=O)C(C(=O)Nc1ncc(Cc3ccccc3)s1)CC2 (racemic)
Data returned: yes

Data request: Is reported pKi greater than or equal to 7 here: CN1C(=O)C(C(=O)Nc2nnn(Cc3ccccc3)n2)CCc2ccccc21 (stereo unspecified)
Data returned: yes

Data request: Is reported pKi greater than or equal to 7 here: CN1C(=O)C(C(=O)Nc2cn(Cc3ccccc3)nn2)CCc2ccccc21 (stereo unspecified)
Data returned: yes
